Reference source for all entries: patent US10172868B2

- measuredOn: BTK (Homo sapiens (Human))
- Sequence (Q06187 whole entry): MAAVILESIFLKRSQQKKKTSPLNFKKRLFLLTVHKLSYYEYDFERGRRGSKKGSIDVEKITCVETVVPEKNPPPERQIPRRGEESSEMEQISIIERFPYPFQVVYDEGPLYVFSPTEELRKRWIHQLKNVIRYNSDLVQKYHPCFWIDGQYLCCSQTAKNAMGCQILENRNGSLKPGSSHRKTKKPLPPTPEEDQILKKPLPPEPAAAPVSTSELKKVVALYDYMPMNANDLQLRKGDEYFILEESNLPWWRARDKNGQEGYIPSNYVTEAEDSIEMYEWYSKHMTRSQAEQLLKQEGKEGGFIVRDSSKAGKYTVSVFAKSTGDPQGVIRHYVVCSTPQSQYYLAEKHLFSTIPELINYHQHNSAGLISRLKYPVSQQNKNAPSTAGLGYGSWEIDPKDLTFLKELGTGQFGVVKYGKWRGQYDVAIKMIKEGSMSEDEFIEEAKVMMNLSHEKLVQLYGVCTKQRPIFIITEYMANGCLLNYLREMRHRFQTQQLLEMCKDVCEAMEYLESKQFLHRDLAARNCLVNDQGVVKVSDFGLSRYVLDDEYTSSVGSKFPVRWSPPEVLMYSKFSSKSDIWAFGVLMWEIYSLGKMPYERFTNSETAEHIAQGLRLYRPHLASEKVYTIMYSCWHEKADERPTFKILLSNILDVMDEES
- procedureDetails: Z'-LYTE kinase inhibition assay, BTK
- Type: biochemical
- experimentalSetup: compound at 0.041 μM; read-out: % inhibition against BTK
measurementLabel: inhibition at 0.041 µM

> print(dat)
                           structurenotation  resultvalue
 1  Clc1ccccc1-c1cccc2cnc(Nc3ccc(N4CCNCC4)cc3)nc12        < 50%
 2  C=CC(=O)Nc1cccc(-c2cccc3cnc(Nc4ccc(N5CCOCC5)cc4)nc23)c1        > 50%
 3  C=CC(=O)Nc1cccc(-c2cccc3cnc(Nc4ccc(NC5CCN(C(C)=O)CC5)cc4)nc23)c1        > 50%
 4  C=CC(=O)Nc1cccc(-c2nccc3c(N)nc(Nc4ccc(N5CCOCC5)cc4)nc23)c1        > 50%
 5  C=CC(=O)Nc1cccc(-c2cccc3cnc(Nc4ccc(OCCN(C)C)cc4)nc23)c1        > 50%
 6  c1ccc(-c2cccc3cnc(Nc4ccc(N5CCOCC5)cc4)nc23)cc1        < 50%
 7  C=CC(=O)Nc1cccc(-c2cccc3cnc(Nc4ccc(N5CCN(C)CC5)cc4)nc23)c1        > 50%
 8  C=CC(=O)Nc1cccc(-c2cccc3cnc(Nc4ccc(NC5CN(C(C)=O)C5)cc4)nc23)c1        > 50%
 9  C=CC(=O)Nc1cccc(-c2cccc3cnc(Nc4ccc(NC5CCN(C)CC5)cc4)nc23)c1        > 50%
10  C=CC(=O)Nc1cccc(-c2cccc3cnc(Nc4ccc(N5CCN(CCF)CC5)cc4)nc23)c1        > 50%
11  C=CC(=O)Nc1cccc(-c2cccc3cnc(Nc4ccc(N5CCN(C)CC5)nc4OC)nc23)c1        < 50%
12  C=CC(=O)Nc1cccc(-c2cccc3cnc(Nc4ccc(OC5CCN(C(C)=O)CC5)cc4)nc23)c1        > 50%
13  C=CC(=O)Nc1cccc(-c2cccc3cnc(Nc4ccc(N[C@@H]5CCOC5)cc4)nc23)c1        > 50%
14  C=CC(=O)Nc1cccc(-c2cccc3cnc(Nc4ccc(OCCN5CCC5)cc4)nc23)c1        > 50%
15  C=CC(=O)Nc1cccc(-c2cccc3cnc(Nc4ccc(O[C@H]5CCN(C)C5)cc4)nc23)c1        > 50%
16  C=CC(=O)Nc1cccc(-c2cccc3cnc(Nc4ccc(O[C@@H]5CCOC5)cc4)nc23)c1        > 50%

---

- measuredOn: EGFR (ErbB1) T790M L858R (Homo sapiens (Human), UniProt P00533, L858R/T790M)
- Sequence (P00533 25-1210 T790M/L858R): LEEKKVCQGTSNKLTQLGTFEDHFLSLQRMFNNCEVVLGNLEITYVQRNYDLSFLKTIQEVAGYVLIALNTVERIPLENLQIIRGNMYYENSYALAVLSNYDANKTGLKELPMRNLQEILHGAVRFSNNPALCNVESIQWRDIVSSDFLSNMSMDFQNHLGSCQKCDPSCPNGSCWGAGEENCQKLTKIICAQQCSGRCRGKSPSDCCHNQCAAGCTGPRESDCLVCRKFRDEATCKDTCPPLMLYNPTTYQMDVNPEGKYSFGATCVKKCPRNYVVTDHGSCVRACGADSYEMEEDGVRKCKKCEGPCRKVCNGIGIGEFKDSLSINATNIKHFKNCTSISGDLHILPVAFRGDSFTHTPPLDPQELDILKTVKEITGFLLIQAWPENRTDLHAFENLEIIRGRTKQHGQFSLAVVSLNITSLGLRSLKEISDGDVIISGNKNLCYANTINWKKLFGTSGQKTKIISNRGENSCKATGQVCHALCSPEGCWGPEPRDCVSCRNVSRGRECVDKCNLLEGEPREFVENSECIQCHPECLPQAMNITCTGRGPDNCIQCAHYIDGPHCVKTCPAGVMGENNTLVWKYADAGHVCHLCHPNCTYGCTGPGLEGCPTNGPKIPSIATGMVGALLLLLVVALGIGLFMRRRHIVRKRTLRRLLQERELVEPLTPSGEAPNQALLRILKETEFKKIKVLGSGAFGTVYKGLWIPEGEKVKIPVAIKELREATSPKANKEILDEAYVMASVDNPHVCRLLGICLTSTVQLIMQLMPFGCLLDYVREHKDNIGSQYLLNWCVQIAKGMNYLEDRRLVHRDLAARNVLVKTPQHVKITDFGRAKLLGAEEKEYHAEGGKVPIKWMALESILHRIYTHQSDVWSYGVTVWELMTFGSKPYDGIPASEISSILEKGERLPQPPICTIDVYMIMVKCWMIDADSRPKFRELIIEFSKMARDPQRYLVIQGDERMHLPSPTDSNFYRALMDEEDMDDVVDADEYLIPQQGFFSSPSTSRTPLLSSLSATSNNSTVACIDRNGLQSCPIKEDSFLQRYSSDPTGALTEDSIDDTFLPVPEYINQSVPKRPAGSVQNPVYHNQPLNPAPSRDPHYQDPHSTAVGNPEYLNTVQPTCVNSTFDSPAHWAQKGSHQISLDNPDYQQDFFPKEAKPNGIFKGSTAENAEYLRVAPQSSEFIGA
- procedureDetails: Z'-LYTE kinase inhibition assay, EGFR L858R/T790M
- Type: biochemical
- experimentalSetup: read-out: % inhibition against EGFR L858R/T790M (Compound at 0.0137 μM)
Consider the following molecules and their measured inhibition at 0.0137 µM readings.
measurementLabel: inhibition at 0.0137 µM

> print(dat)
                          structurenotation         measurementlabel  resultvalue
1  C=CC(=O)Nc1cccc(-c2cccc3cnc(Nc4ccc(N5CCN(C(=O)CO)CC5)cc4)nc23)c1  inhibition at 0.0137 µM        > 50%
2  CN(C)C/C=C/C(=O)Nc1cccc(-c2cccc3cnc(Nc4ccc(N5CCN(C)CC5)cc4)nc23)c1  inhibition at 0.0137 µM        > 50%
3  C=CC(=O)Nc1cccc(-c2cccc3cnc(Nc4ccc(N5CCN(CCF)CC5)cc4)nc23)c1F  inhibition at 0.0137 µM        > 50%
4  C=CC(=O)Nc1cccc(-c2cccc3cnc(Nc4ccc(N5CCN(C)CC5)cc4)nc23)c1OC  inhibition at 0.0137 µM        > 50%
5  C=CC(=O)Nc1cccc(-c2cccc3cnc(Nc4ccc(N[C@H]5CCN(C(C)=O)C5)cc4)nc23)c1  inhibition at 0.0137 µM        < 50%
6  C=CC(=O)Nc1cccc(-c2cccc3cnc(Nc4cc(F)c(N5CCN(CCOC)CC5)cc4F)nc23)c1  inhibition at 0.0137 µM        < 50%
7  C=CC(=O)Nc1cccc(-c2cccc3cnc(Nc4ccc(OC5CCOCC5)cc4)nc23)c1  inhibition at 0.0137 µM        < 50%
